assay: total protein half-life in vivo (active degradation + dilution); higher = more stable protein; conditions: wild type E. coli NCM3722; growth: N-lim chemostat; doubling time 6 h
Param threshold (5 h) applies to total protein half-life in vivo; output Satisfied when value >= threshold, Not satisfied when value < threshold.

As a guide, the following entries are already answered.
MKATSEELAIFVSVVESGSFSRAAEQLGQANSAVSRAVKKLEMKLGVSLLNRTTRQLSLTEEGERYFRRVQSILQEMAAAESEIMETRNTPRGLLRIDAATPVVLHFLMPLIKPFRERYPEVTLSLVSSETIINLIERKVDVAIRAGTLTDSSLRARPLFNSYRKIIASPDYISRYGKPETIDDLKQHICLGFTEPASLNTWPIARSDGQLHEVKYGLSSNSGETLKQLCLSGNGIACLSDYMIDKEIARGELVELMADKVLPVEMPFSAVYYSDRAVSTRIRAFIDFLSEHVKTAPGGAVREA = Satisfied
MQRETVWLVEDEQGIADTLVYMLQQEGFAVEVFERGLPVLDKARKQVPDVMILDVGLPDISGFELCRQLLALHPALPVLFLTARSEEVDRLLGLEIGADDYVAKPFSPREVCARVRTLLRRVKKFSTPSPVIRIGHFELNEPAAQISWFDTPLALTRYEFLLLKTLLKSPGRVWSRQQLMDSVWEDAQDTYDRTVDTHIKTLRAKLRAINPDLSPINTHRGMGYSLRGL = Not satisfied
MTDMNILDLFLKASLLVKLIMLILIGFSIASWAIIIQRTRILNAAAREAEAFEDKFWSGIELSRLYQESQGKRDNLTGSEQIFYSGFKEFVRLHRANSHAPEAVVEGASRAMRISMNRELENLETHIPFLGTVGSISPYIGLFGTVWGIMHAFIALGAVKQATLQMVAPGIAEALIATAIGLFAAIPAVMAYNRLNQRVNKLELNYDNFMEEFTAILHRQAFTVSESNKG [P0ABU9] = Satisfied

Test whether the sequence MAIILGIDPGSRVTGYGVIRQVGRQLSYLGSGCIRTKVDDLPSRLKLIYAGVTEIITQFQPDYFAIEQVFMAKNADSALKLGQARGVAIVAAVNQELPVFEYAARQVKQTVVGIGSAEKSQVQHMVRTLLKLPANPQADAADALAIAITHCHVSQNAMQMSESRLNLARGRLR [P0A814] records total protein half-life in vivo of 5 h or higher.
Not satisfied

Test whether the sequence MNIRDLEYLVALAEHRHFRRAADSCHVSQPTLSGQIRKLEDELGVMLLERTSRKVLFTQAGMLLVDQARTVLREVKVLKEMASQQGETMSGPLHIGLIPTVGPYLLPHIIPMLHQTFPKLEMYLHEAQTHQLLAQLDSGKLDCVILALVKESEAFIEVPLFDEPMLLAIYEDHPWANRECVPMADLAGEKLLMLEDGHCLRDQAMGFCFEAGADEDTHFRATSLETLRNMVAAGSGITLLPALAVPPERKRDGVVYLPCIKPEPRRTIGLVYRPGSPLRSRYEQLAEAIRARMDGHFDKVLKQAV [P0ACQ4] records total protein half-life in vivo of 5 h or higher.
Not satisfied

Test whether the sequence MDQFECINVADAHQKLQEKEAVLVDIRDPQSFAMGHAVQAFHLTNDTLGAFMRDNDFDTPVMVMCYHGNSSKGAAQYLLQQGYDVVYSIDGGFEAWQRQFPAEVAYGA [P0A6V5] records total protein half-life in vivo of 5 h or higher.
Not satisfied

Test whether the sequence MERIVVTLGERSYPITIASGLFNEPASFLPLKSGEQVMLVTNETLAPLYLDKVRGVLEQAGVNVDSVILPDGEQYKSLAVLDTVFTALLQKPHGRDTTLVALGGGVVGDLTGFAAASYQRGVRFIQVPTTLLSQVDSSVGGKTAVNHPLGKNMIGAFYQPASVVVDLDCLKTLPPRELASGLAEVIKYGIILDGAFFNWLEENLDALLRLDGPAMAYCIRRCCELKAEVVAADERETGLRALLNLGHTFGHAIEAEMGYGNWLHGEAVAAGMVMAARTSERLGQFSSAETQRIITLLKRAGLPVNGPREMSAQAYLPHMLRDKKVLAGEMRLILPLAIGKSEVRSGVSHELVLNAIADCQSA records total protein half-life in vivo of 5 h or higher.
Not satisfied

Test whether the sequence MDLRRFITLKTVVEEGSFLRASQKLCCTQSTVTFHIQQLEQEFSVQLFEKIGRRMCLTREGKKLLPHIYELTRVMDTLREAAKKESDPDGELRVVSGETLLSYRMPQVLQRFRQRAPKVRLSLQSLNCYVIRDALLNDEADVGVFYRVGNDDALNRRELGEQSLVLVASPQIADVDFTEPGRHNACSFIINEPQCVFRQIFESTLRQRRITVENTIELISIESIKRCVAANIGVSYLPRFAVAKELECGELIELPFGEQSQTITAMCAHHAGKAVSPAMHTFIQCVEESFVAG records total protein half-life in vivo of 5 h or higher.
Not satisfied

Test whether the sequence MSETASWQPSASIPNLLKRAAIMAEIRRFFADRGVLEVETPCMSQATVTDIHLVPFETRFVGPGHSQGMNLWLMTSPEYHMKRLLVAGCGPVFQLCRSFRNEEMGRYHNPEFTMLEWYRPHYDMYRLMNEVDDLLQQVLDCPAAESLSYQQAFLRYLEIDPLSADKTQLREVAAKLDLSNVADTEEDRDTLLQLLFTFGVEPNIGKEKPTFVYHFPASQASLAQISTEDHRVAERFEVYYKGIELANGFHELTDAREQQQRFEQDNRKRAARGLPQHPIDQNLIEALKVGMPDCSGVALGVDRLVMLALGAETLAEVIAFSVDRA [P0A8N7] records total protein half-life in vivo of 5 h or higher.
Not satisfied

Test whether the sequence MKKPLRQQNRQIISYVPRTEPAPPEHAIKMDSFRDVWMLRGKYVAFVLMGESFLRSPAFTVPESAQRWANQIRQEGEVTE [P0AE60] records total protein half-life in vivo of 5 h or higher.
Not satisfied

###

test: total protein half-life in vivo (active degradation + dilution); higher = more stable protein; settings: E. coli NCM3722 delta-clpP delta-lon delta-hslV; growth: N-lim chemostat; doubling time 6 h
Reported total protein half-life in vivo values follow for various sequences

MADVHDKATRSKNMRAIATRDTAIEKRLASLLTGQGLAFRVQDASLPGRPDFVVDEYRCVIFTHGCFWHHHHCYLFKVPATRTEFWLEKIGKNVERDRRDISRLQELGWRVLIVWECALRGREKLTDEALTERLEEWICGEGASAQIDTQGIHLLA = 5.56 h
MGLCSRYKSLTCNSCSMHCQIMPEESPRLQYCANSCFCMWPEESSYFNRGVVEGILTKNHNARLSGYIFVDFSVSFLRLFLEKDWIDYLASTDMGIVLVSDRNMQSLANYWRKHNSAISAVIYNDDGLDVANEKIRQLFIGRYLSFTGGNTLTQMEFTIMGYMVSGYNPYQIAEVLDMDIRSIYAYKQRIEKRMGGKINELFIRSHSVQH = 4.5 h
MRTISYSEARQNLSATMMKAVEDHAPILITRQNGEACVLMSLEEYNSLEETAYLLRSPANARRLMDSIDSLKSGKGTEKDIIE = 2.74 h
MTSGLERLSNLLSKKDSVFVSDLLREAKVNELDETLSTTRLNHLIDKGYERITLQLDLGGESPGYLEKDKHYREADAALLNVIYPTNLSKINTRRKEQV = 4.54 h
MTQYSSLLRGLAAGSAFLFLFAPTAFAAEQTVEAPSVDARAWILMDYASGKVLAEGNADEKLDPASLTKIMTSYVVGQALKADKIKLTDMVTVGKDAWATGNPALRGSSVMFLKPGDQVSVADLNKGVIIQSGNDACIALADYVAGSQESFIGLMNGYAKKLGLTNTTFQTVHGLDAPGQFSTARDMALLGKALIHDVPEEYAIHKEKEFTFNKIRQPNRNRLLWSSNLNVDGMKTGTTAGAGYNLVASATQGDMRLISVVLGAKTDRIRFNESEKLLTWGFRFFETVTPIKPDATFVTQRVWFGDKSEVNLGAGEAGSVTIPRGQLKNLKASYTLTEPQLTAPLKKGQVVGTIDFQLNGKSIEQRPLIVMENVEEGGFFGRVWDFVMMKFHQWFGSWFS = 6.35 h
MIRSMTAYARREIKGEWGSATWEMRSVNQRYLETYFRLPEQFRSLEPVVRERIRSRLTRGKVECTLRYEPDVSAQGELILNEKLAKQLVTAANWVKMQSDEGEINPVDILRWPGVMAAQEQDLDAIAAEILAALDGTLDDFIVARETEGQALKALIEQRLEGVTAEVVKVRSHMPEILQWQRERLVAKLEDAQVQLENNRLEQELVLLAQRIDVAEELDRLEAHVKETYNILKKKEAVGRRLDFMMQEFNRESNTLASKSINAEVTNSAIELKVLIEQMREQIQNIE = 4.67 h
MTIYTLSHGSLKLDVSDQGGVIEGFWRDTTPLLRPGKKSGVATDASCFPLVPFANRVSGNRFVWQGREYQLQPNVEWDAHYLHGDGWLGEWQCVSHSDDSLCLVYEHRSGVYHYRVSQAFHLTADTLTVTLSVTNQGAETLPFGTGWHPYFPLSPQTRIQAQASGYWLEREQWLAGEFCEQLPQELDFNQPAPLPRQWVNNGFAGWNGQARIEQPQEGYAIIMETTPPAPCYFIFVSDPAFDKGYAFDFFCLEPMSHAPDDHHRPEGGDLIALAPGESTTSEMSLRVEWL = 6.63 h
MINYGVVGVGYFGAELARFMNMHDNAKITCVYDPENGENIARELQCINMSSLDALVSSKLVDCVIVATPNYLHKEPVIKAAKNKKHVFCEKPIALSYEDCVDMVKACKEAGVTFMAGHIMNFFNGVQYARKLIKEGVIGEILSCHTKRNGWENKQERLSWKKMKEQSGGHLYHHIHELDCVQHLLGEIPETVTMIGGNLAHSGPGFGNEDDMLFMTLEFPSGKLATLEWGSAFNWPEHYVIINGTKGSIKIDMQETAGSLRIGGQTKHFLVHETQEEDDDRRKGNMTSEMDGAIAYGHPGKKTPLWLASLIRKETLFLHNILCGAKPEEDYIDLLNGEAAMSAIATADAATLSRSQDRKVKISEIIKHTSVM = 5.16 h
MKITLLVTLLFGLVFLTTVGAAERTLTPQQQRMTSCNQQATAQALKGDARKTYMSDCLKNSKSAPGEKSLTPQQQKMRECNNQATQQSLKGDDRNKFMSACLKKAA [P0AFM4] = 6.55 h
MKSLQALFGGTFDPVHYGHLKPVETLANLIGLTRVTIIPNNVPPHRPQPEANSVQRKHMLELAIADKPLFTLDERELKRNAPSYTAQTLKEWRQEQGPDVPLAFIIGQDSLLTFPTWYEYETILDNAHLIVCRRPGYPLEMAQPQYQQWLEDHLTHNPEDLHLQPAGKIYLAETPWFNISATIIRERLQNGESCEDLLPEPVLTYINQQGLYR [P0A752] = 4.39 h

Entry MADITLISGSTLGGAEYVAEHLAEKLEEAGFTTETLHGPLLEDLPASGIWLVISSTHGAGDIPDNLSPFYEALQEQKPDLSAVRFGAIGIGSREYDTFCGAIDKLEAELKNSGAKQTGETLKINILDHDIPEDPAEEWLGSWVNLLK — recorded total protein half-life in vivo = 3.22 h

Entry MAANAFVRARIDEDLKNQAADVLAGMGLTISDLVRITLTKVAREKALPFDLREPNQLTIQSIKNSEAGIDVHKAKDADDLFDKLGI — recorded total protein half-life in vivo = 2.38 h

Entry MTTQYGFFIDSSRCTGCKTCELACKDFKDLGPEVSFRRIYEYAGGDWQEDNGVWHQNVFAYYLSISCNHCDDPACTKVCPSGAMHKREDGFVVVDEDVCIGCRYCHMACPYGAPQYNAEKGHMTKCDGCYSRVAEGKQPICVESCPLRALEFGPIEELRQKHGTLAAVAPLPRAHFTKPNIVIKPNANSRPTGDTTGYLANPEEV [P0AAJ1] — recorded total protein half-life in vivo = 4.03 h

Entry MSEFDAQRVAERIDIVLDILVAGDYHSAIHNLEILKAELLRQVAESTPDIPKAPWEI [A5A614] — recorded total protein half-life in vivo = > 8 h
